Tested on: rodent lifetime carcinogenesis bioassay, tumor incidence TD50
Assay: carcinogenic potency in animals, long-term in vivo studies, CPDB compilation (AID 1745844)
Conditions: mouse; strain C57BL/6JfC3Hf/Nctr x BALB/cStCrlfC3Hf/Nctr inter se; females; in drinking water; site: uterus; lesion: angioma; dosed 143 weeks; study length 143 weeks
Measured Parameter: TD50

The reported TD50 of the compound `Nc1ccc(-c2ccc(N)cc2)cc1` was 402 mg/kg/day

----------
System: rodent lifetime carcinogenesis bioassay, tumor incidence TD50
Test: carcinogenic potency in animals, long-term in vivo studies, CPDB compilation (AID 1745844)
Details: mouse; strain B6C3F1; males; inhaled; site: lung; lesion: alveolar/bronchiolar carcinoma; dosed 130 weeks; study length 130 weeks
Measured Parameter: TD50 (mg/kg/day)
// return numeric value only (unit: mg/kg/day, not printed)

The reported TD50 of the molecule `O=[O+][O-]` was 0.633
